- Target or test system: Human Monoamine Oxidase A (hMAO-A) (Homo sapiens, UniProt P21397)
- Construct: purchased Sigma-Aldrich
- Assay method text: hMAO-A inhibition, MAO-Glo chemiluminescent assay and enzyme kinetics
- Assay type: biochemical
Measured endpoint: Ki (µM)
Hi! Could you send only the number? It should be in µM, unit omitted.

Qu. Suppose we examine the compound CC(C)=CCc1c(-c2ccc(O)cc2O)oc2c(C3C=C(C)CC(c4ccc(O)cc4O)C3C(=O)c3ccc(O)cc3O)c(O)cc(O)c2c1=O (stereo not shown) ; what Ki value has been reported?
Ans. 28.3

---

- Target or test system: human dopamine D2L receptor (hD2LR) (Homo sapiens, UniProt P14416)
- Construct: host or cells: CHO (CHO-D2LR)
- Sequence (P14416 whole entry): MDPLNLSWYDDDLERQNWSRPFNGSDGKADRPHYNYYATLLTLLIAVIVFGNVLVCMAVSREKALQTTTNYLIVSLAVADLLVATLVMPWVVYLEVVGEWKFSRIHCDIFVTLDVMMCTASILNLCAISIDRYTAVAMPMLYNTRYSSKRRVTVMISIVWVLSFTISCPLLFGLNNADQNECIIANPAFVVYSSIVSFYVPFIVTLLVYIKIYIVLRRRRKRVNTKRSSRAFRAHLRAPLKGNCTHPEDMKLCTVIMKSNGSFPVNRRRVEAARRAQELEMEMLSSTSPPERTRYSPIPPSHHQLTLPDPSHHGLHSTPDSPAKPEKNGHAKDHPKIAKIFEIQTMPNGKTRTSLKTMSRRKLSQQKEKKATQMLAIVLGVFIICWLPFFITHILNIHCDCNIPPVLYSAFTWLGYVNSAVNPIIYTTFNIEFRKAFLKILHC
- Assay method text: cell-based functional GPCR assay, Ca2+ mobilization, CHO-D2LR
Measured endpoint: pIC50
Remember, pIC50 is on a log scale: it is -log10 of the molar concentration.

Qu. Reported pIC50, compound CC(C)=CCc1c(-c2ccc(O)cc2O)oc2c(C3C=C(C)CC(c4ccc(O)cc4O)C3C(=O)c3ccc(O)cc3O)c(O)cc(O)c2c1=O (stereo not shown) [Compound 2, kuwanon G] : ____
Ans. 4.51

---

- Target or test system: Human Monoamine Oxidase B (hMAO-B) (Homo sapiens)
- Construct: purchased Sigma-Aldrich
- Sequence (P27338 whole entry): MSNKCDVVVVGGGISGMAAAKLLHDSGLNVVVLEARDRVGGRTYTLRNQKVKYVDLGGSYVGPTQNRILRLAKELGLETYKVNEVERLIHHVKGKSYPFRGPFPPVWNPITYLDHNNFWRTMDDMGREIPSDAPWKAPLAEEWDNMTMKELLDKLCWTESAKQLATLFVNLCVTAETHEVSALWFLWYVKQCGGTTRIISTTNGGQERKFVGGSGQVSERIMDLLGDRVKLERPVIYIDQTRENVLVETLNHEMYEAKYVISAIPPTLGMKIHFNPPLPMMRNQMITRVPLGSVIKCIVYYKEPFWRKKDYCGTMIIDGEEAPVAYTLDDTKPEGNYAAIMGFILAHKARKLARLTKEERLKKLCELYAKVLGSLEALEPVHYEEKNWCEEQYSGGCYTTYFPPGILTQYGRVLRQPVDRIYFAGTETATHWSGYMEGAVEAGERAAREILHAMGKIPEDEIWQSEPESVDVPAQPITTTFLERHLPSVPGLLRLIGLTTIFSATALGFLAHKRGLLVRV
- Assay method text: hMAO-B inhibition, MAO-Glo chemiluminescent assay and enzyme kinetics
- Format: biochemical
- Cond: log dose-inhibition curve, triplicate, read-out: IC50 (μM, Mean ± SD)
Assign IC50 to each entry below.
Write the number in µM without appending the unit.

Qu. Find IC50 (Human Monoamine Oxidase B (hMAO-B) (Homo sapiens)) for the entry CC1=C[C@H]2c3c(O)cc(-c4cc5ccc(O)cc5o4)cc3O[C@@]3(c4ccc(O)cc4O)Oc4cc(O)ccc4[C@H](C1)[C@@H]23 [Compound 1, mulberrofuran G]
Ans. 18.1

Qu. Could you share what IC50 was measured for Cc1cc2c3c(c1)-c1c(O)cc(-c4cc5ccc(O)cc5o4)cc1OC3(c1ccc(O)cc1O)Oc1cc(O)ccc1-2 (stereo not drawn) [Compound 3, albanol B] , tested on Human Monoamine Oxidase B (hMAO-B) (Homo sapiens)?
Ans. 90.6

Qu. What IC50 appears in the records for this compound with Human Monoamine Oxidase B (hMAO-B) (Homo sapiens)? CC(C)=CCc1c(-c2ccc(O)cc2O)oc2c(C3C=C(C)CC(c4ccc(O)cc4O)C3C(=O)c3ccc(O)cc3O)c(O)cc(O)c2c1=O (stereo not drawn) [Compound 2, kuwanon G]
Ans. 57.7

---

- Target or test system: Human Monoamine Oxidase B (hMAO-B) (Homo sapiens)
- Construct: purchased Sigma-Aldrich
- Assay method text: hMAO-B inhibition, MAO-Glo chemiluminescent assay and enzyme kinetics
- Assay type: biochemical
- Cond: Dixon plot, read-out: Ki Value
I'd be grateful if you could share measured Ki for these entries.

Qu. Looking for the measured Ki of CC(C)=CCc1c(-c2ccc(O)cc2O)oc2c(C3C=C(C)CC(c4ccc(O)cc4O)C3C(=O)c3ccc(O)cc3O)c(O)cc(O)c2c1=O (centres unmarked) , can you help?
Ans. 52.1 µM

Qu. Which Ki value belongs to `CC1=C[C@H]2c3c(O)cc(-c4cc5ccc(O)cc5o4)cc3O[C@@]3(c4ccc(O)cc4O)Oc4cc(O)ccc4[C@H](C1)[C@@H]23` ?
Ans. 17 µM

---

So I've got a bunch of compounds here, and I need their Ki values.
- Target or test system: Human Monoamine Oxidase A (hMAO-A) (Homo sapiens, UniProt P21397)
- Construct: purchased Sigma-Aldrich
- Assay method text: hMAO-A inhibition, MAO-Glo chemiluminescent assay and enzyme kinetics
- Assay type: biochemical
- Cond: hMAO-A; Dixon plot; read-out: Ki Value
Lab book: enter the figure in µM, no units written.

Qu. Query (compound): Cc1cc2c3c(c1)-c1c(O)cc(-c4cc5ccc(O)cc5o4)cc1OC3(c1ccc(O)cc1O)Oc1cc(O)ccc1-2 (centres unmarked) ; field requested: Ki
Ans. 46.9

Qu. Tell me the measured Ki of `CC1=C[C@H]2c3c(O)cc(-c4cc5ccc(O)cc5o4)cc3O[C@@]3(c4ccc(O)cc4O)Oc4cc(O)ccc4[C@H](C1)[C@@H]23` , please.
Ans. 27

---

- Target or test system: Human Monoamine Oxidase A (hMAO-A) (Homo sapiens, UniProt P21397)
- Construct: purchased Sigma-Aldrich
- Sequence (P21397 1-527): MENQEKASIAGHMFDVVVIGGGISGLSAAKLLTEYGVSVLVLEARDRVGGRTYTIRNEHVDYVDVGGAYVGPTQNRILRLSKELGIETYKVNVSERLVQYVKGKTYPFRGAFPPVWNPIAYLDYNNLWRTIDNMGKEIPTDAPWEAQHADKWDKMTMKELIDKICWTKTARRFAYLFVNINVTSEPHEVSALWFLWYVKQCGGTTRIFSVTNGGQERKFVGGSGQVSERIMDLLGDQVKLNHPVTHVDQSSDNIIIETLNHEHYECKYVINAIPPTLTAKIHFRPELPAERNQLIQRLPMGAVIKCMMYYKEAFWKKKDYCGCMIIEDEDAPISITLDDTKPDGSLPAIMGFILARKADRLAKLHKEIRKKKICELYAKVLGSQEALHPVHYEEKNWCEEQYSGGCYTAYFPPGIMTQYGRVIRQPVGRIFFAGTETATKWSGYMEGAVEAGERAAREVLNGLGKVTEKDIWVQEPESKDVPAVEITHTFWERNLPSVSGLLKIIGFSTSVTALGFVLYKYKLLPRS
- Assay method text: hMAO-A inhibition, MAO-Glo chemiluminescent assay and enzyme kinetics
- Type: biochemical
Measured endpoint: IC50 (µM)
The answer is to be given in µM; state only the numeric part.

Qu. Recorded IC50 for CC(C)=CCc1c(-c2ccc(O)cc2O)oc2c(C3C=C(C)CC(c4ccc(O)cc4O)C3C(=O)c3ccc(O)cc3O)c(O)cc(O)c2c1=O (stereo not shown) [Compound 2, kuwanon G] , please?
Ans. 70.2

---

- Target or test system: human dopamine D4 receptor (hD4R) (Homo sapiens, UniProt P21917)
- Sequence (P21917 whole entry): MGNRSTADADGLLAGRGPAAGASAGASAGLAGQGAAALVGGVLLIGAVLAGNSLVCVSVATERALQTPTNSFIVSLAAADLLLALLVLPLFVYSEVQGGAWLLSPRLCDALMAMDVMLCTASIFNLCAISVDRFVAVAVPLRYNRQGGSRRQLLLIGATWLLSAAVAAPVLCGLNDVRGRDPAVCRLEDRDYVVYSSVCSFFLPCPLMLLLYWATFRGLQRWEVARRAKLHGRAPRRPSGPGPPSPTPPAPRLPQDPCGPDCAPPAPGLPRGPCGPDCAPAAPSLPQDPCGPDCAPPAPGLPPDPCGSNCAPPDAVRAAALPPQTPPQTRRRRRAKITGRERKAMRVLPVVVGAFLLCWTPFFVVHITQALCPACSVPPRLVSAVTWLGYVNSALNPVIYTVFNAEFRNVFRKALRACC
- Assay method text: cell-based functional GPCR assay, cAMP modulation, CHO-D4R
Measured endpoint: pEC50
Lab note: report pEC50 as minus log10 of the concentration in molar units, number only.

Qu. Could you tell me which pEC50 is on file for `CC1=C[C@H]2c3c(O)cc(-c4cc5ccc(O)cc5o4)cc3O[C@@]3(c4ccc(O)cc4O)Oc4cc(O)ccc4[C@H](C1)[C@@H]23` ?
Ans. 4.76

Qu. // query pEC50 value for entry CC(C)=CCc1c(-c2ccc(O)cc2O)oc2c(C3C=C(C)CC(c4ccc(O)cc4O)C3C(=O)c3ccc(O)cc3O)c(O)cc(O)c2c1=O (centres unmarked)
Ans. 4.68
